Below, each entry is listed with its recorded inhibition at 0.3 µM.
- measured.target: Recombinant human JAK1 catalytic domain (Homo sapiens (Human), UniProt P23458)
- Sequence (P23458 875-1153): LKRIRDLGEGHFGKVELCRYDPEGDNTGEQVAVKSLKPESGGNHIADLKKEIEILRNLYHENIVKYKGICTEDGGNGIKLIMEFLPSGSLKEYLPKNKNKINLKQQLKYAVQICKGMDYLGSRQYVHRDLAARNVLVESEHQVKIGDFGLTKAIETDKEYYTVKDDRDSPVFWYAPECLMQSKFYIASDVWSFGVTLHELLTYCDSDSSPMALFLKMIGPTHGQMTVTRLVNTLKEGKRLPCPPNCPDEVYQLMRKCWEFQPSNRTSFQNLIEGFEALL
- protocol.summary: JAK1 kinase assay (Z'-LYTE Tyr 6 Peptide)
- Assay type: biochemical
- applied.conditions: JAK1 kinase assay, 0.3 uM concentration; read-out: inhibition percentage (IR %)

Example cases with answers are listed next.
>>> print(df.to_string())
                                   molecule                           measured_target  test_result
0  COC(=O)c1ccc(N(C)[C@@H]2CCN(c3ncnc4[nH]ccc34)C2)nc1  Recombinant human JAK1 catalytic domain (Homo sapiens (Human), UniProt P23458)   50 to 100%
1  CN(c1ccc(C#N)c(O)n1)[C@@H]1CCN(c2ncnc3[nH]ccc23)C1  Recombinant human JAK1 catalytic domain (Homo sapiens (Human), UniProt P23458)   50 to 100%
2  N#Cc1ccc(N(CC2CC2)[C@@H]2CCN(c3ncnc4[nH]ccc34)C2)nc1  Recombinant human JAK1 catalytic domain (Homo sapiens (Human), UniProt P23458)   50 to 100%
3  CN(c1ccc(S(=O)(=O)Nc2ccn(C)n2)cn1)[C@@H]1CCN(c2ncnc3[nH]ccc23)C1  Recombinant human JAK1 catalytic domain (Homo sapiens (Human), UniProt P23458)    20 to 50%
4  C#CCN(C1CCCC1)[C@@H]1CCN(c2ncnc3[nH]ccc23)C1  Recombinant human JAK1 catalytic domain (Homo sapiens (Human), UniProt P23458)    20 to 50%
5  CN(c1ccc(C(=O)NC2c3ccccc3C[C@H]2O)cc1F)[C@@H]1CCN(c2ncnc3[nH]ccc23)C1 (single isomer, unassigned)  Recombinant human JAK1 catalytic domain (Homo sapiens (Human), UniProt P23458)   50 to 100%
6  CN(c1cnc(-c2ccn[nH]2)cn1)[C@@H]1CCN(c2ncnc3[nH]ccc23)C1  Recombinant human JAK1 catalytic domain (Homo sapiens (Human), UniProt P23458)   50 to 100%
7  CN(c1ccc(S(=O)(=O)NC2CC2)cn1)[C@@H]1CCN(c2ncnc3[nH]ccc23)C1  Recombinant human JAK1 catalytic domain (Homo sapiens (Human), UniProt P23458)   50 to 100%
8  CN(C(=O)c1cccnc1)[C@@H]1CCN(c2ncnc3[nH]ccc23)C1  Recombinant human JAK1 catalytic domain (Homo sapiens (Human), UniProt P23458)    20 to 50%
9  C[C@H](NC(=O)c1ccc(N(C)[C@@H]2CCN(c3ncnc4[nH]ccc34)C2)nc1)c1ccccc1  Recombinant human JAK1 catalytic domain (Homo sapiens (Human), UniProt P23458)    20 to 50%

// query Look at this molecule and give its reported inhibition at 0.3 µM. CN(c1ccc(-c2cccs2)cn1)[C@@H]1CCN(c2ncnc3[nH]ccc23)C1
// result 50 to 100%

// query Proceed to CN(c1ccc(C(=O)NC(CO)c2ccccc2Cl)cc1F)[C@@H]1CCN(c2ncnc3[nH]ccc23)C1 (stereo partly shown)
// result 50 to 100%

// query How about CN(c1ccc(S(=O)(=O)N2CCCC2)cn1)[C@@H]1CCN(c2ncnc3[nH]ccc23)C1 ?
// result 50 to 100%

// query Try this molecule next: CC(C)S(=O)(=O)N(C)[C@@H]1CCN(c2ncnc3[nH]ccc23)C1
// result 50 to 100%

// query Let us now turn to Cc1cc(N(C)[C@@H]2CCN(c3ncnc4[nH]ccc34)C2)nc(Cl)c1C#N
// result 50 to 100%

// query Similarly, CN(c1ccc(C(F)(F)F)nn1)[C@@H]1CCN(c2ncnc3[nH]ccc23)C1 ?
// result 50 to 100%

Ref: patent US10111875B2
